Data origin: patent US20070037752A1

# SUBJECT_OF_TEST: alanyl aminopeptidases (APN) (Homo sapiens, UniProt P15144)
# Sequence (P15144 whole entry, species assumed): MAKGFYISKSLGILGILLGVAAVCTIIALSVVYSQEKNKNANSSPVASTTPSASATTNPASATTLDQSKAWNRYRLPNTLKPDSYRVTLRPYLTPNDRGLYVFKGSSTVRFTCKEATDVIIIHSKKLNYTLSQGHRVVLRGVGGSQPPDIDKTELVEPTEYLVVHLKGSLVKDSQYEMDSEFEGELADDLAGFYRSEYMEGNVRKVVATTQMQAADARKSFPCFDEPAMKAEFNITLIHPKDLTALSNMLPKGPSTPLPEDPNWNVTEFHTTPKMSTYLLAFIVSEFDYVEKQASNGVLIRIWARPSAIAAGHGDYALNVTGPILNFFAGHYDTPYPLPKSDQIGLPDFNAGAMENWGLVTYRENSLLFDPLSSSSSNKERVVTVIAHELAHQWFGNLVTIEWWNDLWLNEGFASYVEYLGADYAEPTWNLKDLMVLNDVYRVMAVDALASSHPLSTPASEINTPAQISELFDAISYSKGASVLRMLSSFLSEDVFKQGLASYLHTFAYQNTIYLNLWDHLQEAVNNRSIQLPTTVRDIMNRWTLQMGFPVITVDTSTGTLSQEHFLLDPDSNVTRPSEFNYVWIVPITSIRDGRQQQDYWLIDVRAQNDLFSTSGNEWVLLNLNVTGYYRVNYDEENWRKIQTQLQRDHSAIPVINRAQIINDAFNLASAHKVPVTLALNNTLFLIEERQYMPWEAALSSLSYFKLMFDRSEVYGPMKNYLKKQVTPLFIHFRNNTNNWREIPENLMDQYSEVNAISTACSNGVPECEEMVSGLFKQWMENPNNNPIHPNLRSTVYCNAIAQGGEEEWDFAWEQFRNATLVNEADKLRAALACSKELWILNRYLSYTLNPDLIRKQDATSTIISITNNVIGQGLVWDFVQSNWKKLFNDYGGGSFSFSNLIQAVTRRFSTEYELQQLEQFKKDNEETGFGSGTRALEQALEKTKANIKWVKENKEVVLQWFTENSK
# EXPERIMENTAL_DETAILS: Inhibition of alanyl aminopeptidase enzymatic activity, fluorogenic substrate (Ala)2-rhodamine 110
# Assay type: biochemical
# EXPERIMENTAL_CONDITIONS: Table 9, unstarred values; read-out: IC50APN
I'd be grateful if you could share measured IC50 for these entries.
Answers are plain numbers, in µM.

[
  {
    "COMPOUND": "CC1=C(C#N)C(O)=NC(=O)/C1=C/c1ccc(-c2ccc(Cl)c(C(=O)OC(C)C)c2)o1 [A9.053]",
    "UNIT_LABEL": "µM",
    "IC50": 21.3
  }
]

For each entry beneath this line, provide reported IC50.
1. O=C1C2=[N+]([O-])C3CCCCC3[N+]([O-])=C2c2ccccc21 (stereo not drawn) [A9.030]
2. COc1nncc(-c2cnnc(SC)n2)n1 [A9.033]
3. CC(=O)NC1OCC(O)C(O)C1O (stereo not drawn) [A9.014]
4. CC1=C(C#N)C(=O)N(CC(C)O)C(=O)/C1=C/c1ccc(-c2cccc(Cl)c2C)o1 (stereo not drawn) [A9.072]

1: 13.7; 2: 14.3; 3: 7.3; 4: 28.6

For each entry beneath this line, provide reported IC50.
1. N/C(=N/OS(=O)(=O)c1ccc(C(F)(F)F)cc1)C1CSCCS1 (stereo not drawn) [A9.031]
2. O=C(Cc1ccc([N+](=O)[O-])cc1)N1CCOCC1 [A9.044]

[13.4, 19.1]

For each entry beneath this line, provide reported IC50.
1. CCCN1C(=O)C(C#N)=C(C)/C(=C\c2ccc(-c3cccc(Cl)c3C)o2)C1=O [A9.049]
2. CCOC(=O)c1cc(-c2ccc(/C=C3\C(=O)N(CCCO)C(=O)C(C#N)=C3C)o2)ccc1Cl [A9.094]

20.8
41

====

# SUBJECT_OF_TEST: alanyl aminopeptidases (APN) (Homo sapiens, UniProt P15144)
# EXPERIMENTAL_DETAILS: Inhibition of alanyl aminopeptidase enzymatic activity, fluorogenic substrate (Ala)2-rhodamine 110
# Type: biochemical
# EXPERIMENTAL_CONDITIONS: Table 11; read-out: IC50APN
ASSAY_READOUT: pIC50
Numbers only, as −log10 of the molar value.

[
  {
    "SMILES_STRING": "O=C1c2cccc3c(Br)c([N+](=O)[O-])cc(c23)C(=O)N1c1cccc([N+](=O)[O-])c1",
    "ASSAY_READOUT": "pIC50",
    "RECORDED_RESULT": 4.63
  },
  {
    "SMILES_STRING": "O=C(N/N=C/c1cccc([N+](=O)[O-])c1)c1ccco1",
    "ASSAY_READOUT": "pIC50",
    "RECORDED_RESULT": 4.34
  },
  {
    "SMILES_STRING": "CCN(CC)c1ccc(/C=C(\\NC(=O)c2ccccc2)C(=O)N/N=C/c2ccc(O)c([N+](=O)[O-])c2)cc1",
    "ASSAY_READOUT": "pIC50",
    "RECORDED_RESULT": 5.12
  }
]

Let us move to another entry and its pIC50.
Form field pIC50, entry CN(C)CCCN1CCN(c2nc(N(C)CC(=O)O)c3ncn(Cc4ccc([N+](=O)[O-])cc4)c3n2)CC1 : 4.93
